# subject_of_test: T1, CD3 epsilon homodimer protein (UniProt P07766 23-126)
# T1 construct: also called CD3 (CD3 epsilon)
# protocol_description: SPR, antibody over immobilised CD3e homodimer;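 further: SPR at 25 °C with CD3 epsilon homodimer amine-coupled to a CM4 sensor chip and antibody flowed over as analyte in HBS-EP+ running buffer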
Threshold-based label: KD ratio to GLS3000 under 2 gives rule met, KD ratio to GLS3000 not under 2 gives rule not met.

INSERT INTO measurements (binder, category) VALUES
  ('CE115HA000/GLS3000 T31E (antibody, IgG1, name in Kabat numbering, V domains shown, one-arm IgG1) VH: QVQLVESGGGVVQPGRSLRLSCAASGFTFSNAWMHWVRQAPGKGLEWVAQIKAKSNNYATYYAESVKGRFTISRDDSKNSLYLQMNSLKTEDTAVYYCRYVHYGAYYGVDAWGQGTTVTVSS VL: DIVMTQSPLSLPVTPGEPASISCRSSQSLVHSNRNEYLHWYQQKPGQAPRLLIYKVSNRFSGVPDRFSGSGSGTDFTLKISRVEAEDVGVYYCGQGTQVPYTFGQGTKLEIK', 'rule met'),
  ('CE115HA000/GLS3000 F55W (antibody, IgG1, name in Kabat numbering, V domains shown, one-arm IgG1) VH: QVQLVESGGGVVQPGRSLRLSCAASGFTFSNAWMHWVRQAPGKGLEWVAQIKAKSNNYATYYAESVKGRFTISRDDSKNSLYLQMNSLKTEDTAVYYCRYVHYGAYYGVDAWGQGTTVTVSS VL: DIVMTQSPLSLPVTPGEPASISCRSSQSLVHSNRNTYLHWYQQKPGQAPRLLIYKVSNRWSGVPDRFSGSGSGTDFTLKISRVEAEDVGVYYCGQGTQVPYTFGQGTKLEIK', 'rule met'),
  ('CE115HA000/GLS3000 H34Q (antibody, IgG1, name in Kabat numbering, V domains shown, one-arm IgG1) VH: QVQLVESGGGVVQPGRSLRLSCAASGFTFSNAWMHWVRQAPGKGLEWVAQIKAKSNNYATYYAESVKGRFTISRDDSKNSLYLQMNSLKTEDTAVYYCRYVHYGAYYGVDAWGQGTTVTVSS VL: DIVMTQSPLSLPVTPGEPASISCRSSQSLVHSNRNTYLQWYQQKPGQAPRLLIYKVSNRFSGVPDRFSGSGSGTDFTLKISRVEAEDVGVYYCGQGTQVPYTFGQGTKLEIK', 'rule not met'),
  ('CE115HA000/GLS3000 S27eI (antibody, IgG1, name in Kabat numbering, V domains shown, one-arm IgG1) VH: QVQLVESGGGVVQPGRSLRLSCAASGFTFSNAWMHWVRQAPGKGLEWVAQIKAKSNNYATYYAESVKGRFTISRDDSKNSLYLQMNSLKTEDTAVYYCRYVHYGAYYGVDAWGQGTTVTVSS VL: DIVMTQSPLSLPVTPGEPASISCRSSQSLVHINRNTYLHWYQQKPGQAPRLLIYKVSNRFSGVPDRFSGSGSGTDFTLKISRVEAEDVGVYYCGQGTQVPYTFGQGTKLEIK', 'rule met'),
  ('CE115HA000/GLS3000 V27cE (antibody, IgG1, name in Kabat numbering, V domains shown, one-arm IgG1) VH: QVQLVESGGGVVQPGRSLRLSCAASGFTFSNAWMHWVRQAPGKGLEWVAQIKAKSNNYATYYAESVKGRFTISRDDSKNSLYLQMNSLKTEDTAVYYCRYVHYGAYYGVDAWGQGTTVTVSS VL: DIVMTQSPLSLPVTPGEPASISCRSSQSLEHSNRNTYLHWYQQKPGQAPRLLIYKVSNRFSGVPDRFSGSGSGTDFTLKISRVEAEDVGVYYCGQGTQVPYTFGQGTKLEIK', 'rule met'),
  ('CE115HA000/GLS3000 N53W (antibody, IgG1, name in Kabat numbering, V domains shown, one-arm IgG1) VH: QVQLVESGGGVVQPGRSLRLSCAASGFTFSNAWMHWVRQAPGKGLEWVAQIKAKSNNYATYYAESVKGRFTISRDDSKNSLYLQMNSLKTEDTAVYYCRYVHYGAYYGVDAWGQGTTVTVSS VL: DIVMTQSPLSLPVTPGEPASISCRSSQSLVHSNRNTYLHWYQQKPGQAPRLLIYKVSWRFSGVPDRFSGSGSGTDFTLKISRVEAEDVGVYYCGQGTQVPYTFGQGTKLEIK', 'rule met'),
  ('CE115HA000/GLS3000 S27eH (antibody, IgG1, name in Kabat numbering, V domains shown, one-arm IgG1) VH: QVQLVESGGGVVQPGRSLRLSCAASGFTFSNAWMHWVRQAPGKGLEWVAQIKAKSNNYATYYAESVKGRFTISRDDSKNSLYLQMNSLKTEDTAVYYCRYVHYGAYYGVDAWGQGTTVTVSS VL: DIVMTQSPLSLPVTPGEPASISCRSSQSLVHHNRNTYLHWYQQKPGQAPRLLIYKVSNRFSGVPDRFSGSGSGTDFTLKISRVEAEDVGVYYCGQGTQVPYTFGQGTKLEIK', 'rule met'),
  ('CE115HA000/GLS3000 G91A (antibody, IgG1, name in Kabat numbering, V domains shown, one-arm IgG1) VH: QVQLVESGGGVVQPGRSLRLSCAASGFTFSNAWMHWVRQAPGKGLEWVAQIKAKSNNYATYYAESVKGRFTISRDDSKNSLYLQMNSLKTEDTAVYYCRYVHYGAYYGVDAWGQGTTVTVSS VL: DIVMTQSPLSLPVTPGEPASISCRSSQSLVHSNRNTYLHWYQQKPGQAPRLLIYKVSNRFSGVPDRFSGSGSGTDFTLKISRVEAEDVGVYYCGQATQVPYTFGQGTKLEIK', 'rule not met'),
  ('CE115HA000/GLS3000 S27aY (antibody, IgG1, name in Kabat numbering, V domains shown, one-arm IgG1) VH: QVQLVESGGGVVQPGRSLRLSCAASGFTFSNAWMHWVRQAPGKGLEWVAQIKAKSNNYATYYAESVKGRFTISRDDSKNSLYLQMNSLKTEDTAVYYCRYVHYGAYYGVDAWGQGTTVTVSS VL: DIVMTQSPLSLPVTPGEPASISCRSSQYLVHSNRNTYLHWYQQKPGQAPRLLIYKVSNRFSGVPDRFSGSGSGTDFTLKISRVEAEDVGVYYCGQGTQVPYTFGQGTKLEIK', 'rule met'),
  ('CE115HA000/GLS3000 H34G (antibody, IgG1, name in Kabat numbering, V domains shown, one-arm IgG1) VH: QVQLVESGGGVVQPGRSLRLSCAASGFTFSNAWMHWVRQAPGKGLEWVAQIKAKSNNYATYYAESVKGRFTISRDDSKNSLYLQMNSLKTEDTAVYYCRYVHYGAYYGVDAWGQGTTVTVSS VL: DIVMTQSPLSLPVTPGEPASISCRSSQSLVHSNRNTYLGWYQQKPGQAPRLLIYKVSNRFSGVPDRFSGSGSGTDFTLKISRVEAEDVGVYYCGQGTQVPYTFGQGTKLEIK', 'rule met'),
  ('CE115HA000/GLS3000 H27dP (antibody, IgG1, name in Kabat numbering, V domains shown, one-arm IgG1) VH: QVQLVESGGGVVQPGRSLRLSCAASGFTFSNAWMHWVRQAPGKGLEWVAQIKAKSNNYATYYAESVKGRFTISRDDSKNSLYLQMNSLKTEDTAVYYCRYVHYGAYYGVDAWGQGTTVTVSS VL: DIVMTQSPLSLPVTPGEPASISCRSSQSLVPSNRNTYLHWYQQKPGQAPRLLIYKVSNRFSGVPDRFSGSGSGTDFTLKISRVEAEDVGVYYCGQGTQVPYTFGQGTKLEIK', 'rule not met');
